Where do the numbers come from? From patent US10821115B2.

Biological target: recombinant human Mcl-1 (residues 171-327) / Bim interaction (Homo sapiens (Human), UniProt Q07820)
Sequence (Q07820 171-327): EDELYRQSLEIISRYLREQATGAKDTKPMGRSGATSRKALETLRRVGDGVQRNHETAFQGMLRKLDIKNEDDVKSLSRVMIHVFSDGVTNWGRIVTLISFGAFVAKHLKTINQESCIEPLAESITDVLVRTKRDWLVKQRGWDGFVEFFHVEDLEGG
Test: biochemical
Format: binding
Conditions: 0.1 nM Mcl-1(171-327), 0.05 nM biotin-Bim (51-76); read-out: Mcl-1 HTRF IC50
pIC50: −log10 of the molar value.
Listed molecules paired with reported pIC50

Molecule	pIC50
CCO[C@]1(CN2CCN(C(C)C)CC2)/C=C/C[C@H](C)[C@@H](C)S(=O)(=O)NC(=O)c2ccc3c(c2)N(C[C@@H]2CC[C@H]21)C[C@@]1(CCCc2cc(Cl)ccc21)CO3 [Example 114]	9.98
CO[C@@]1(CN(C)CCN2CCOCC2)/C=C/C[C@H](C)[C@@H](C)S(=O)(=O)NC(=O)c2ccc3c(c2)N(C[C@@H]2CC[C@H]21)C[C@@]1(CCCc2cc(Cl)ccc21)CO3 [Example 35]	9.66
CCO[C@@]1(CN2CCN(C3COC3)CC2)/C=C/C[C@H](C)[C@@H](C)S(=O)(=O)NC(=O)c2ccc3c(c2)N(C[C@@H]2CC[C@H]21)C[C@@]1(CCCc2cc(Cl)ccc21)CO3 [Example 106]	9.52
CO[C@]1(CN2CCN3C(=O)[C@@H](C)OC[C@@H]3C2)/C=C/C[C@H](C)[C@@H](C)S(=O)(=O)NC(=O)c2ccc3c(c2)N(C[C@@H]2CC[C@H]21)C[C@@]1(CCCc2cc(Cl)ccc21)CO3 [Example 144]	9.57
COCCN1CCN(C[C@@]2(OC)/C=C/C[C@H](C)[C@@H](C)S(=O)(=O)NC(=O)c3ccc4c(c3)N(C[C@@H]3CC[C@H]32)C[C@@]2(CCCc3cc(Cl)ccc32)CO4)CC1=O [Example 54]	9.76
CCO[C@]1(CN2CCN3CCOC[C@@H]3C2)/C=C/C[C@H](C)[C@@H](C)S(=O)(=O)NC(=O)c2ccc3c(c2)N(C[C@@H]2CC[C@H]21)C[C@@]1(CCCc2cc(Cl)ccc21)CO3 [Example 1]	10.07
CO[C@]1(CN2CC(N3CCOCC3)C2)/C=C/C[C@H](C)[C@@H](C)S(=O)(=O)NC(=O)c2ccc3c(c2)N(C[C@@H]2CC[C@H]21)C[C@@]1(CCCc2cc(Cl)ccc21)CO3 [Example 84]	9.97
COCC[C@@H]1[C@@H](C)C/C=C/[C@@](CN2CCN3CCCC[C@@H]3C2)(OC)[C@@H]2CC[C@H]2CN2C[C@@]3(CCCc4cc(Cl)ccc43)COc3ccc(cc32)C(=O)NS1(=O)=O [Example 181]	9.49
CO[C@]1(CN2CCN3CCC(F)(F)C[C@@H]3C2)/C=C/C[C@H](C)[C@@H](C)S(=O)(=O)NC(=O)c2ccc3c(c2)N(C[C@@H]2CC[C@H]21)C[C@@]1(CCCc2cc(Cl)ccc21)CO3 (single isomer, unassigned) [Example 298]	9.55
CO[C@]1(CN2CC3(C2)CS(=O)(=O)C3)/C=C/C[C@H](C)[C@@H](C)S(=O)(=O)NC(=O)c2ccc3c(c2)N(C[C@@H]2CC[C@H]21)C[C@@]1(CCCc2cc(Cl)ccc21)CO3 [Example 224]	9.90
C[C@@H]1[C@@H](C)CCC[C@]2(CN3CCOC[C@H]3CO2)[C@@H]2CC[C@H]2CN2C[C@@]3(CCCc4cc(Cl)ccc43)COc3ccc(cc32)C(=O)NS1(=O)=O (single isomer, unassigned) [Example 399]	9.40
CO[C@@]1(CN2CCN(C)CC2)/C=C/C[C@H](C)[C@@H](C)S(=O)(=O)NC(=O)c2ccc3c(c2)N(C[C@@H]2CC[C@H]21)C[C@@]1(CCCc2cc(Cl)ccc21)CO3 [Example 196]	9.33
CC[C@@H]1CC/C=C/[C@@](CN2CCN3CCOC[C@@H]3C2)(OC)[C@@H]2CC[C@H]2CN2C[C@@]3(CCCc4cc(Cl)ccc43)COc3ccc(cc32)C(=O)NS1(=O)=O [Example 30]	9.96
CO[C@@]1(CN2CCn3nncc3C2)/C=C/C[C@H](C)[C@@H](C)S(=O)(=O)NC(=O)c2ccc3c(c2)N(C[C@@H]2CC[C@H]21)C[C@@]1(CCCc2cc(Cl)ccc21)CO3 [Example 207]	9.86
CO[C@@]1(CN2CC(N3CCS(=O)(=O)CC3)C2)/C=C/C[C@H](C)[C@@H](C)S(=O)(=O)NC(=O)c2ccc3c(c2)N(C[C@@H]2CC[C@H]21)C[C@@]1(CCCc2cc(Cl)ccc21)CO3 [Example 279]	10.08
COCCN1CCN(C[C@]2(OC)/C=C/C[C@H](C)[C@@H](C)S(=O)(=O)NC(=O)c3ccc4c(c3)N(C[C@@H]3CC[C@H]32)C[C@@]2(CCCc3cc(Cl)ccc32)CO4)CC1=O [Example 55]	9.79
CC[C@@H]1CC/C=C/[C@](CN2CCN(C)CC2)(OC)[C@@H]2CC[C@H]2CN2C[C@@]3(CCCc4cc(Cl)ccc43)COc3ccc(cc32)C(=O)NS1(=O)=O [Example 31]	9.74
CO[C@@]1(CN2CCN3CCC(F)(F)C[C@H]3C2)/C=C/C[C@H](C)[C@@H](C)S(=O)(=O)NC(=O)c2ccc3c(c2)N(C[C@@H]2CC[C@H]21)C[C@@]1(CCCc2cc(Cl)ccc21)CO3 (single isomer, unassigned) [Example 289]	9.67
